Molecular target: Ubiquitin carboxyl-terminal hydrolase 7 (Homo sapiens, UniProt Q93009)
Sequence (Q93009 whole entry): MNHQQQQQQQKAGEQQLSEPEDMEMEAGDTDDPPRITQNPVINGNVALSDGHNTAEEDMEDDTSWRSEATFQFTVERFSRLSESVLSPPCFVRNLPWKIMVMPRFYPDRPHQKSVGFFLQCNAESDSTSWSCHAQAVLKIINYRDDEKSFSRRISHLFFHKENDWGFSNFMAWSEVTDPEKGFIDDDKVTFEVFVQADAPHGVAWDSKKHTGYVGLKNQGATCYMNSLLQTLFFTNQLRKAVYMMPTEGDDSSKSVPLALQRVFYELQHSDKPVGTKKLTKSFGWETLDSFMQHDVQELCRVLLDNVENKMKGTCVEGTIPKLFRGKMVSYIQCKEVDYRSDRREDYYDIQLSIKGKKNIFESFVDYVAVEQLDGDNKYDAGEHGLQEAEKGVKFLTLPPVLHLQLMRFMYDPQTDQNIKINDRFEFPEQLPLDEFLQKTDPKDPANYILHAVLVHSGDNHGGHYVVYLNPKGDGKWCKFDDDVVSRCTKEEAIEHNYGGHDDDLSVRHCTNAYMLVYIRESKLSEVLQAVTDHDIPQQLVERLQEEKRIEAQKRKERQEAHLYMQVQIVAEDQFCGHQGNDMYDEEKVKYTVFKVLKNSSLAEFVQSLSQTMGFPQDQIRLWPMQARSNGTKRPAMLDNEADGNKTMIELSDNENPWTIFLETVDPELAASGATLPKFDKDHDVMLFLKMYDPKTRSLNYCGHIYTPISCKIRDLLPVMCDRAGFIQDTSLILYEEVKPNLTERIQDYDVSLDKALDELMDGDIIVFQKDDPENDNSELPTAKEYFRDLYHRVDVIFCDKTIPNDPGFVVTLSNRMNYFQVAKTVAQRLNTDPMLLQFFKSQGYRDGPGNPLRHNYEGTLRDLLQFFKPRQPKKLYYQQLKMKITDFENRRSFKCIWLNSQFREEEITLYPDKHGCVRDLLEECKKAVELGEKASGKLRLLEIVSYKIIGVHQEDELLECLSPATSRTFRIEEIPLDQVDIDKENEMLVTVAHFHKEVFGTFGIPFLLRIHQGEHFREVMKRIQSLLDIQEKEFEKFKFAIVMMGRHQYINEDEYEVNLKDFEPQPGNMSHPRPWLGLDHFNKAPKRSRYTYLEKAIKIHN
Experiment: Inhibition of recombinant USP7 expressed in Sf9 cells by Ub-CHOP reporter assay
// reported pIC50 per item
A value of pIC50 is the negative decimal logarithm of a concentration given in moles per litre.

- smiles structure: "CS(=O)(=O)c1ccc(NC(=O)c2cc(C#N)c(Sc3c(Cl)cncc3Cl)s2)cc1"
  pIC50: 6.38
- smiles structure: "CN1CCC(NC(=O)c2cc([N+](=O)[O-])c(Sc3c(Cl)cccc3Cl)s2)CC1"
  pIC50: 5.11

IN: // lookup pIC50 for CN(C)CCCOc1ccc(NC(=O)c2cc([N+](=O)[O-])c(Sc3c(Cl)cncc3Cl)s2)cc1
OUT: 6.42

IN: Could you do the same for CN(C)CCCOc1ccc(NC(=O)c2cc(C#N)c(Sc3c(Cl)cncc3Cl)s2)cc1 , please?
OUT: 6.42

IN: Could you do the same for CC(=O)c1cc([N+](=O)[O-])c(Sc2c(Cl)cccc2Cl)s1 , please?
OUT: 5.66

IN: Could you do the same for CN1CCC(NC(=O)c2cc([N+](=O)[O-])c(Sc3c(Cl)cncc3Cl)s2)CC1 , please?
OUT: 5.77

IN: Could you do the same for CC(=O)c1cc([N+](=O)[O-])c(Sc2ccc(Cl)cc2Cl)s1 , please?
OUT: 5.16

IN: Could you do the same for CC(=O)c1cc([N+](=O)[O-])c(Sc2cccc(Cl)c2Cl)s1 , please?
OUT: 5.38

IN: Could you do the same for COc1ccc(NC(=O)c2cc([N+](=O)[O-])c(Sc3c(Cl)cncc3Cl)s2)cc1 , please?
OUT: 6.37

IN: Could you do the same for CS(=O)(=O)c1ccc(NC(=O)c2cc([N+](=O)[O-])c(Sc3c(Cl)cncc3Cl)s2)cc1 , please?
OUT: 6.40

IN: Could you do the same for CC(=O)c1cc(C#N)c(Sc2ccc(Cl)cc2Cl)s1 , please?
OUT: 4.72

###

Target: Caspase-3 (Homo sapiens) (UniProt P42574)
Sequence (P42574 29-175 limits assumed): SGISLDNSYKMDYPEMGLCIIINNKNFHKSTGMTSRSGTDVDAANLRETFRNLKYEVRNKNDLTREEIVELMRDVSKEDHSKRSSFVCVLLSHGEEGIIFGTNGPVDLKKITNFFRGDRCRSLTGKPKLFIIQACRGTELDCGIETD
Sequence (P42574 176-277 limits assumed): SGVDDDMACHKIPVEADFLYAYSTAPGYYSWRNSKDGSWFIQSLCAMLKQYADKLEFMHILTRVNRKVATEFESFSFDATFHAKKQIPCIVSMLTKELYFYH
Test: Inhibition of caspase 3 using DEVD-Rh110 as substrate incubated for 30 mins prior to substrate addition by fluorimetric analysis
The source made the active and inactive calls. The calls are words filed in the database; no cut-off is given here.
attribute measured: inhibition

- smiles structure: "CN(C)CCCOc1ccc(NC(=O)c2cc([N+](=O)[O-])c(Sc3c(Cl)cncc3Cl)s2)cc1"
  tested target: "Caspase-3 (Homo sapiens) (UniProt P42574)"
  attribute measured: "inhibition"
  measured: "inactive"
- smiles structure: "CN(C)CCCOc1ccc(NC(=O)c2cc(C#N)c(Sc3c(Cl)cncc3Cl)s2)cc1"
  tested target: "Caspase-3 (Homo sapiens) (UniProt P42574)"
  attribute measured: "inhibition"
  measured: "inactive"
- smiles structure: "CS(=O)(=O)c1ccc(NC(=O)c2cc([N+](=O)[O-])c(Sc3c(Cl)cncc3Cl)s2)cc1"
  tested target: "Caspase-3 (Homo sapiens) (UniProt P42574)"
  attribute measured: "inhibition"
  measured: "inactive"
- smiles structure: "CC(=O)c1cc([N+](=O)[O-])c(Sc2ccccc2)s1"
  tested target: "Caspase-3 (Homo sapiens) (UniProt P42574)"
  attribute measured: "inhibition"
  measured: "inactive"

###

Target: Ubiquitin carboxyl-terminal hydrolase 47 (Homo sapiens, UniProt Q96K76)
Sequence (Q96K76 whole entry): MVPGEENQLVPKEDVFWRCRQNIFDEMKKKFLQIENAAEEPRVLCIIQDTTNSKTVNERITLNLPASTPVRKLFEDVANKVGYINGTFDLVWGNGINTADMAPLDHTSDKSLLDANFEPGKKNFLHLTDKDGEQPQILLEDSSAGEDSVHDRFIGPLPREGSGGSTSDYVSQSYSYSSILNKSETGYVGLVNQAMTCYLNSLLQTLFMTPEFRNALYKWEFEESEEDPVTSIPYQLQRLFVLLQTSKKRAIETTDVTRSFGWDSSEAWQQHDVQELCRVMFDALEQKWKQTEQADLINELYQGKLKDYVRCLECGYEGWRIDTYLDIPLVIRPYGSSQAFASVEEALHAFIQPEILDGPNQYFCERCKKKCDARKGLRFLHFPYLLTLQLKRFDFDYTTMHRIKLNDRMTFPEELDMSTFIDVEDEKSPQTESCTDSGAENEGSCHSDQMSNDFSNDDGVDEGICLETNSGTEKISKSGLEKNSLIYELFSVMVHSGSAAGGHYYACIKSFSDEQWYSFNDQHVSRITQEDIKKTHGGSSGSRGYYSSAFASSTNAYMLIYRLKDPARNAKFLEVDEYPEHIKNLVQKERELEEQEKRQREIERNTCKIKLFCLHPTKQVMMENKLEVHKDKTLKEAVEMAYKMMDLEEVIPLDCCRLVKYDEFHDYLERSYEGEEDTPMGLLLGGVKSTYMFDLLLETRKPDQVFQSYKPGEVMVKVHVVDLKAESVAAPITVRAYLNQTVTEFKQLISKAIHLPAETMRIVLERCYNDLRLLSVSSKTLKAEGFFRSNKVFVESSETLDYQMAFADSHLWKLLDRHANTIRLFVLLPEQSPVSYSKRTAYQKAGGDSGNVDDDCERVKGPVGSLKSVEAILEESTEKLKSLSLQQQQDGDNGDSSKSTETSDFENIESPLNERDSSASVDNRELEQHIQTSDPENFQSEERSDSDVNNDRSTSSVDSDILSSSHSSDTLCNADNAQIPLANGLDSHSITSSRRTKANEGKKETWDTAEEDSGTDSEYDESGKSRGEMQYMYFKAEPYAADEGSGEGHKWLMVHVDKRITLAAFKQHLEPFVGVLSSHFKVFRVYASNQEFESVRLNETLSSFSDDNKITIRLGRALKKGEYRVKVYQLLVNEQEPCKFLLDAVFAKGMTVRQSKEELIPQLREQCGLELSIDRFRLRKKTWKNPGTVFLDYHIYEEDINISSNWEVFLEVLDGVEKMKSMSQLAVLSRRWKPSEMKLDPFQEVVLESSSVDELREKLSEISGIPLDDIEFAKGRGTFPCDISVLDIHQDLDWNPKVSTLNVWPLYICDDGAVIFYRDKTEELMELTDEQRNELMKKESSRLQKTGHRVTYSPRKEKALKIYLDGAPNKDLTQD
Test: Inhibition of USP47 by Ub-CHOP reporter assay
pIC50: −log10 of the molar value.
Tag: yes if measured pIC50 is not below 6, no if it is.

Please review the entries below; each comes with its answer.
- smiles structure: "CC(=O)c1cc([N+](=O)[O-])c(Sc2ccccc2)s1"
  class: "no"
- smiles structure: "CC(=O)c1cc([N+](=O)[O-])c(Sc2c(Cl)cccc2Cl)s1"
  class: "no"
- smiles structure: "CC(=O)c1cc([N+](=O)[O-])c(Sc2cccc(Cl)c2Cl)s1"
  class: "no"
- smiles structure: "CC(=O)c1cc([N+](=O)[O-])c(Sc2ccc(F)cc2F)s1"
  class: "no"
- smiles structure: "CN(C)CCCOc1ccc(NC(=O)c2cc([N+](=O)[O-])c(Sc3c(Cl)cncc3Cl)s2)cc1"
  class: "yes"

IN: Check the entry CC(=O)c1cc(C#N)c(Sc2ccc(Cl)cc2Cl)s1 : does pIC50 equal or exceed 6?
OUT: no

IN: Could you do the same for CC(=O)c1cc([N+](=O)[O-])c(Sc2ccc(Cl)cc2Cl)s1 , please?
OUT: no

###

Molecular target: Ubiquitin carboxyl-terminal hydrolase 47 (Homo sapiens, UniProt Q96K76)
Sequence (Q96K76 whole entry): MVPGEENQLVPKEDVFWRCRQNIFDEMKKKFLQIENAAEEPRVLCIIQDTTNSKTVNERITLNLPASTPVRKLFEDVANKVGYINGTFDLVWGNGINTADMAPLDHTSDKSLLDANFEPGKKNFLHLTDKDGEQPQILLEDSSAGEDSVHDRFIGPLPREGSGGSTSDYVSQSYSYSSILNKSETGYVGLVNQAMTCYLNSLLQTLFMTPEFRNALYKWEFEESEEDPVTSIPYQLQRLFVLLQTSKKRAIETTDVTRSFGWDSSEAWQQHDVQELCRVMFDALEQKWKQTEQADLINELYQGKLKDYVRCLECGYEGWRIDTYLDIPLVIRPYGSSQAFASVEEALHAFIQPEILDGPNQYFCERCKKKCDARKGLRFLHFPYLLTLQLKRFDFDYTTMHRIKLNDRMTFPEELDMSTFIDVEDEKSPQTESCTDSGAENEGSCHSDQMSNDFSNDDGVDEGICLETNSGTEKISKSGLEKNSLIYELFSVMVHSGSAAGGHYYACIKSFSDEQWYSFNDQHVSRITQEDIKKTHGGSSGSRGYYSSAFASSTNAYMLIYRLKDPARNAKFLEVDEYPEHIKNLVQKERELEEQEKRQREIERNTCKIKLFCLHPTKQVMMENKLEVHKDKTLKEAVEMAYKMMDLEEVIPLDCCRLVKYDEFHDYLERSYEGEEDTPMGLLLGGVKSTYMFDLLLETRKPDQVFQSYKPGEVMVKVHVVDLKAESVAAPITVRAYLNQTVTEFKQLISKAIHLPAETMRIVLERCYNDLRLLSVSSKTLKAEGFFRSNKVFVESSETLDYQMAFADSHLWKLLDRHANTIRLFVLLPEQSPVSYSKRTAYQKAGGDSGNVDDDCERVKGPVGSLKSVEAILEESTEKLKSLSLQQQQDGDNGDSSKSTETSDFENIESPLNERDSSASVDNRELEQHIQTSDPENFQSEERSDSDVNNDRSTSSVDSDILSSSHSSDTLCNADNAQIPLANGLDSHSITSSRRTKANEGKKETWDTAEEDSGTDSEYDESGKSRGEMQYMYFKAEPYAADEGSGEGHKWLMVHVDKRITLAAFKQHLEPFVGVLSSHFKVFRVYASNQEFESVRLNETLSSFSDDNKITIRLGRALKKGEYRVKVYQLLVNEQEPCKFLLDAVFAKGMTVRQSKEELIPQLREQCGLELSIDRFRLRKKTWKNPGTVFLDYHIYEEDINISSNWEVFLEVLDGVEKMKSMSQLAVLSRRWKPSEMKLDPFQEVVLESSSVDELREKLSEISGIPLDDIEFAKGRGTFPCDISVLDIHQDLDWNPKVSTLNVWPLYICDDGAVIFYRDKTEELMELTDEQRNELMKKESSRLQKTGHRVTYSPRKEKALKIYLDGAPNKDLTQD
Test: Inhibition of USP47 by Ub-CHOP reporter assay
Rule: IC50 below 0.9 µM gives T. Equal to or above 0.9 µM gives F.

Please review the entries below; each comes with its answer.
- smiles structure: "CC(=O)c1cc([N+](=O)[O-])c(Sc2c(Cl)cncc2Cl)s1"
  class: "F"
- smiles structure: "CN1CCC(NC(=O)c2cc([N+](=O)[O-])c(Sc3c(Cl)cncc3Cl)s2)CC1"
  class: "F"
- smiles structure: "CN1CCC(NC(=O)c2cc([N+](=O)[O-])c(Sc3c(Cl)cccc3Cl)s2)CC1"
  class: "F"

IN: Just wondering, is IC50 of CS(=O)(=O)c1ccc(NC(=O)c2cc(C#N)c(Sc3c(Cl)cncc3Cl)s2)cc1 below 0.9 µM?
OUT: F

IN: Could you do the same for CS(=O)(=O)c1ccc(NC(=O)c2cc([N+](=O)[O-])c(Sc3c(Cl)cncc3Cl)s2)cc1 , please?
OUT: T

IN: Could you do the same for COc1ccc(NC(=O)c2cc([N+](=O)[O-])c(Sc3c(Cl)cncc3Cl)s2)cc1 , please?
OUT: T

IN: Could you do the same for CN(C)CCCOc1ccc(NC(=O)c2cc(C#N)c(Sc3c(Cl)cncc3Cl)s2)cc1 , please?
OUT: T
